# condition: buffer; pH 7.4; 200.0 µM
readout-name: solubility kinetic

structure-notation | result
Cc1cc2c(=O)oc(-c3ccc(Br)cc3)nc2s1 | < 0.7 µg/mL
CC(=O)c1cn(-c2ccc([N+](=O)[O-])cc2)c(=O)n(C)c1=O | > 43.4 µg/mL
O=C(O)c1ccc(Cl)c(NCc2ccncc2)c1 | > 39.4 µg/mL
COc1ccc(-c2cc(C(=O)NN3CCOCC3)c3ccccc3n2)cc1OC | > 59 µg/mL

* * *

Readings of solubility kinetic for the listed molecules
# condition: buffer; pH 7.4; 200.0 µM
readout-name: solubility kinetic

molecule | result
Cc1cc(NC(=O)CSc2nnc(-c3ccco3)n2C)no1 | > 47.9 µg/mL
Cc1ccc2[nH]cc(/C=C/c3cc[n+](C)cc3)c2c1.[I-] | > 56.4 µg/mL
COc1ccc(NC(=O)C2C3CCC(O3)C2C(=O)O)c(OC)c1 (centres undefined) | > 48.2 µg/mL
CCCNS(=O)(=O)c1cc2c3c(c1)CCN3C(=O)CC2 | > 44.2 µg/mL
Cc1cccc(NC(=O)CN2C(=O)CSC2=O)c1 | > 39.6 µg/mL
O=C(NCC(=O)N1CCCC1)c1ccccc1F | > 37.5 µg/mL
Cc1ccc(CNC(=O)Nc2ccc(F)cc2F)n1C | > 41.9 µg/mL
O=C(CCNS(=O)(=O)c1ccccc1C(F)(F)F)NCCCN1CCOCC1 | > 63.5 µg/mL
O=C(NN1C(=O)NC2(CCCCC2)C1=O)c1cc(F)cc(F)c1 | > 48.5 µg/mL
Cc1onc(-c2ccccc2)c1C(=O)N1CCN(c2ccccn2)CC1 | > 52.3 µg/mL
Cc1cc(Nc2ccc(F)c(F)c2)nc(-c2ccccc2O)n1 | < 0.2 µg/mL
Cc1cc(C)n(-c2cccc(C(=O)O)c2)n1 | > 32.4 µg/mL
O=C(O)CCCC(=O)N1CCN(c2ncccn2)CC1 | > 41.7 µg/mL
Cc1csc2c(N3CCCCC3)ncnc12 | > 35 µg/mL
CC(C)N(Cc1ccccc1)C(=O)COC(=O)c1cnccn1 | > 47 µg/mL
O=C(COc1ccccc1)Nc1ccc(F)cc1 | > 36.8 µg/mL
Cc1ccc(C(C)C)c(OCCNC(=O)c2ccccc2O)c1 | < 0.7 µg/mL
CCn1cc(C2CC(=O)NC2=O)c2ccccc21 (centres undefined) | > 36.3 µg/mL
CN=C1S/C(=C\c2cccc(Cl)c2Cl)C(=O)N1C | < 0.3 µg/mL
Cc1ccccc1C(=O)NCC(=O)OC1CCCCC1=O (centres undefined) | > 43.4 µg/mL
CC(=O)C1=C(O)C(=O)N(Cc2ccccc2)C1c1ccc([N+](=O)[O-])cc1 (centres undefined) | > 52.9 µg/mL
CCCn1c(N)c(CC)c(=O)[nH]c1=O | > 29.6 µg/mL
CCc1ccc(NC(=O)C2(C)Cc3ccccc3C(=O)O2)cc1 (centres undefined) | > 46.4 µg/mL
O=C(COC(=O)c1cc[n+]([O-])cc1)Nc1ccc(Cl)c(C(F)(F)F)c1 | > 56.2 µg/mL
CCc1ccc(C(=O)COC(=O)c2cnc(C)cn2)cc1 | > 42.6 µg/mL
Br.CC1CN2C(c3ccc(Cl)cc3)=CSC2=N1 (centres undefined) | > 49.7 µg/mL
Cc1nc(=O)c(-c2ccccc2)c(C)n1-c1ccccc1Cl | > 46.6 µg/mL
COc1ccc(CNC(=O)CN(C)CC(=O)Nc2ccccc2Br)cc1 | > 63 µg/mL
COc1ccc(NC(=O)c2ccc[n+]([O-])c2)cc1 | > 36.6 µg/mL

* * *

# condition: buffer; pH 7.4; 200.0 µM
readout-name: solubility kinetic

molecule | readout-name | result
Cc1cccc(C)c1N1CCN(C(=O)N2CCOCC2)CC1 | solubility kinetic | > 45.5 µg/mL
CC1CCC2C(C1)Nc1c(C(=O)O)cccc1C2(C)C (stereo not given) | solubility kinetic | > 41 µg/mL
CCN(CC)c1ccc(C(=O)N/N=C(\C)c2cccnc2)cc1 | solubility kinetic | > 46.6 µg/mL
Cc1ccc(NC(=O)COC(=O)c2cc(=O)c3ccccc3o2)c(Br)c1 | solubility kinetic | > 62.4 µg/mL
Cc1cccc(Nc2cc(C)nc3ccccc23)c1.Cl | solubility kinetic | > 42.7 µg/mL

* * *

# condition: buffer; pH 7.4; 200.0 µM
Readings of solubility kinetic for the listed compounds

compound | censoring-sign | solubility kinetic, µg/mL
COc1ccccc1C(C)NC(=O)Cc1ccsc1 (stereo unspecified) | > | 41.3
c1ccc(C2Nc3ccccc3C3OCCCC23)cc1 (stereo unspecified) | = | 7.3
CCCC12CN3CC(C)(CN(C1)C3c1ccco1)C2=O (stereo unspecified) | = | 38.9
O=C(c1ccoc1)N1CCCC(Nc2ccc(F)c(F)c2)C1 (stereo unspecified) | = | 44.5
Cc1onc(NC(=O)NC(=O)c2ccccc2F)c1Br | = | 6.8
CC(=O)C(/C=N/c1ncc(C(F)(F)F)cc1Cl)=C(\C)O | = | 1.3

* * *

Readings of solubility kinetic for the listed molecules
# condition: buffer; pH 7.4; 200.0 µM

molecule | solubility kinetic
CC1CCC(NC(=O)CSc2nncs2)CC1 (centres undefined) | > 40.7 µg/mL
COc1cccc2cc(C(C)OC(=O)Nc3ccc(C)cc3)oc12 (centres undefined) | < 0.7 µg/mL
CC(NC(=O)c1cc(-c2ccccc2)nc2ccccc12)C1CCCO1 (centres undefined) | > 52 µg/mL
CCn1nc(C)c(/C=N/NC(=O)Cn2cncn2)c1C | > 41.3 µg/mL
Cc1ccc(S(=O)(=O)N2CCN(C(=O)CC(C)C)CC2)cc1 | > 48.7 µg/mL
CN(CC(=O)O)S(=O)(=O)c1ccc2c(c1)n(C)c(=O)c(=O)n2C | > 51.2 µg/mL
COc1ccc(CCN=C(C)c2cc(C)c(C)cc2O)cc1OC | > 49.1 µg/mL
COCCn1c(N2CCCC2)nc2c1c(=O)[nH]c(=O)n2C | > 44 µg/mL
CC(C)(C)c1ccc(O)c(N=Cc2c(O)ccc3ccccc23)c1 | < 0.7 µg/mL
O=C(Nc1ccc2c(c1)OCCO2)C(=O)c1c[nH]c2ccccc12 | < 0.3 µg/mL
O=C(N/C(=C/c1ccc(F)cc1)C(=O)N1CCCC1)c1ccccc1 | > 50.8 µg/mL
COc1ccc(C(=O)NC(C)C2CC3CCC2C3)c(OC)c1 (centres undefined) | > 45.5 µg/mL
O=C1C(C=Nc2ccc(F)cc2)=C(O)c2ccccc21 | < 0.6 µg/mL
O=S(=O)(Nc1ccc2ccccc2n1)c1ccccc1 | > 42.6 µg/mL
Cc1ccc(S(=O)(=O)Nc2ncccn2)cc1 | > 37.4 µg/mL
C=CCNC(=S)Nc1ccc(C)cc1[N+](=O)[O-] | > 37.7 µg/mL
CC(=O)NC1C(Oc2ccccc2C)OC(CO)C(O)C1O (centres undefined) | > 46.7 µg/mL
O=C(O)CCC(=O)Nc1nc2nccc(-c3ccccc3)n2n1 | > 46.7 µg/mL
C=C(C)CN(CC)C(=O)CN1C(=O)NC2(CCCc3ccccc32)C1=O (centres undefined) | > 53.3 µg/mL
O=C(COc1ccccc1)N1CCN(c2ncccn2)CC1 | > 44.8 µg/mL
Cn1c(=O)[nH]c(=O)c2c1nc1n2CC(COc2ccc3ccccc3c2)O1 (centres undefined) | 0.4 µg/mL
CC(C)CNC(=O)CN1C(=O)NC2(CCc3ccccc32)C1=O (centres undefined) | > 47.3 µg/mL
O=S(=O)(c1cccc2nsnc12)N1CCCCC1 | > 42.5 µg/mL
Nc1c(C(=O)O)cnn1-c1ccccc1 | > 30.5 µg/mL
CCOc1ccc(-n2cnc3sc4c(c3c2=O)CCCC4)cc1 | 0.8 µg/mL
CCOC(=O)C(=CNc1ccc(S(N)(=O)=O)cc1)C(=O)OCC | 37.8 µg/mL
O=C(Nc1ccc(Cl)cc1Cl)c1csc(-c2cccnc2)n1 | 1.6 µg/mL
CC(C)CC(C(=O)Nc1ccccc1)N1C(=O)C2C3C=CC(C3)C2C1=O (centres undefined) | > 52.9 µg/mL
COc1cccc(Nc2nc3ccc(OC)cc3s2)c1 | 2.8 µg/mL
O=S(=O)(/N=C(/Nc1cccnc1Cl)c1ccccc1)c1ccccc1 | > 55.8 µg/mL
O=C(O)C(Cc1ccc(Cl)cc1)Sc1nc2ccccc2[nH]1 (centres undefined) | 42.3 µg/mL
O=C(c1ccc(Cl)cc1Cl)N1CCc2ccccc21 | 13.9 µg/mL
CNc1nc(Cl)nc(Nc2ccccc2)n1 | 2 µg/mL
Cc1ccc(C2=NOC(=O)/C2=C\c2ccc(C)o2)cc1 | 36.3 µg/mL

* * *

Readings of solubility kinetic for the listed compounds
# condition: buffer; pH 7.4; 200.0 µM

compound | solubility kinetic
COc1cc(C(=O)c2ccccc2)c([N+](=O)[O-])cc1OC | > 43.1 µg/mL
CC(C)c1onc(C(=O)N2CCC(C(N)=O)CC2)c1[N+](=O)[O-] | > 46.5 µg/mL
CC(C(=O)Nc1ccc(OCc2ccccc2)cc1)N1CCCC1 (configuration not stated) | > 48.7 µg/mL
C[C@H](NC(=O)Nc1cccc(Br)c1)C(=O)O | > 43.1 µg/mL
CC(=O)Nc1nc(-c2ccc3ccccc3c2)cs1 | < 0.3 µg/mL
O=C(CCc1nc(-c2ccc(Cl)cc2)no1)NCC1CCCO1 (configuration not stated) | > 50.4 µg/mL
Cn1c(=S)n(C)c2ccccc21 | > 26.7 µg/mL
Cc1cc2c(cc1C)C(c1ccccc1OC(C)C)CC(=O)N2 (configuration not stated) | < 0.7 µg/mL
Cc1c(C(=O)N2CCCC2)oc2ccc(Br)cc12 | 25.1 µg/mL
COc1ccccc1-c1cc(-c2ccc(O)cc2)nc(N)c1C#N | 3.7 µg/mL
O=c1cc(-c2ccncc2)oc2c1ccc1ccccc12 | 0.7 µg/mL
O=C(CNS(=O)(=O)c1ccc(Br)cc1)Nc1ccc2c(c1)OCCO2 | 8.7 µg/mL

Taken from PubChem BioAssay AID1996.
